Origin of measurements: patent US7897369B2

Tested on: WS1
assay text: Coupled enzyme assay, WS substrate profile (TLC)
Assay type: biochemical, Marinobacter hydrocarbonoclasticus DSM 8798
Set-up: key: no activity (−); ranging from no activity (−) to most active (+++); ranging from no activity (−) to most active (+++); most active (+++)
measurement setup: alcohol farnesol; 12 h at 37° C.; each substrate 250 μM
readout type: WE formation (spot intensity of wax ester products on TLC), WS1, Farnesol

Example molecules with recorded WE formation (spot intensity of wax ester products on TLC), WS1, Farnesol:
> print(dat)
                                   molecule  result
1           CCCCCCCCCCCCCCCCCCCC(=O)O [C20]      ++
2       CCCCCC/C=C\CCCCCCCC(=O)O [C16Δcis9]      ++
3  CCCCCCCCCCCCCCCC(=O)O [C16, palmitic acid]      ++
4             CCCCCCCCCCCCCCCCCC(=O)O [C18]      ++
5                   CCCCCCCCCCCC(=O)O [C12]     +++

[ask] Specify measured WE formation (spot intensity of wax ester products on TLC), WS1, Farnesol for CCCCCCCCCC(=O)O [C10] .
[reply] +++

* * *

Test system: WS1
assay text: Coupled enzyme assay, WS substrate profile (TLC)
Assay type: biochemical, Marinobacter hydrocarbonoclasticus DSM 8798
Parameters: key: no activity (−); ranging from no activity (−) to most active (+++); ranging from no activity (−) to most active (+++); most active (+++)
measurement setup: fatty alcohol C14; 12 h at 37° C.; each substrate 250 μM
readout type: WE formation (spot intensity of wax ester products on TLC), WS1, C14

> print(dat)
          structure.smiles  result
1    CCCCCCCCCCCCCCCC(=O)O       +
2      CCCCCCCCCCCCCC(=O)O      ++
3  CCCCCCCCCCCCCCCCCC(=O)O      ++

* * *

System: WS1
assay text: Coupled enzyme assay, WS substrate profile (TLC)
Type: biochemical, Marinobacter hydrocarbonoclasticus DSM 8798
Parameters: key: no activity (−); ranging from no activity (−) to most active (+++); ranging from no activity (−) to most active (+++); most active (+++)
measurement setup: fatty alcohol C16; 12 h at 37° C.; each substrate 250 μM
Experimental: Stock solutions of various substrates were prepared in 50 mM Tris-HCl buffer (pH 8) containing 1% gum arabic, 12.5 μg bovine serum albumin ml^−1, 0.1% taurocholate, and either 100 mM fatty acid, isoprenoid acid, fatty alcohol, or isoprenoid alcohol. […] In vitro WS assay samples were extracted with 500 μl of chloroformmethanol (1:1 [vol/vol]), and extracts were analyzed by TLC with Whatman normal phase silica gel 60 plates and developed using hexane-diethyl ether-acetic acid (90:10:1 [vol/vol/vol]). […]
readout type: WE formation (spot intensity of wax ester products on TLC), WS1, C16

> print(dat)
                                   compound  result
1                     CCCCCCCCCCCCCCCC(=O)O     +++
2                   CCCCCCCCCCCCCCCCCC(=O)O       +
3  CC(C)CCCC(C)CCCC(C)CCCC(C)CC(=O)O (stereo not drawn)       −

* * *

System: WS1
assay text: Coupled enzyme assay, WS substrate profile (TLC)
Type: biochemical, Marinobacter hydrocarbonoclasticus DSM 8798
Parameters: key: no activity (−); ranging from no activity (−) to most active (+++); ranging from no activity (−) to most active (+++); most active (+++)
measurement setup: alcohol farnesol; 12 h at 37° C.; each substrate 250 μM
Description: Stock solutions of various substrates were prepared in 50 mM Tris-HCl buffer (pH 8) containing 1% gum arabic, 12.5 μg bovine serum albumin ml^−1, 0.1% taurocholate, and either 100 mM fatty acid, isoprenoid acid, fatty alcohol, or isoprenoid alcohol. […] In vitro WS assay samples were extracted with 500 μl of chloroformmethanol (1:1 [vol/vol]), and extracts were analyzed by TLC with Whatman normal phase silica gel 60 plates and developed using hexane-diethyl ether-acetic acid (90:10:1 [vol/vol/vol]). […]
readout type: WE formation (spot intensity of wax ester products on TLC), WS1, Farnesol

> print(dat)
                                   compound  experimental.target  result
1                       CCCCCCCCCCCCCC(=O)O                  WS1      ++
2  CC/C=C\C/C=C\C/C=C\CCCCCCCC(=O)O [C18Δcis9, 12, 15]                  WS1       +
3  CC(C)CCCC(C)CCCC(C)CCCC(C)CC(=O)O (stereo not drawn)                  WS1       +
